Test: qHTS assay to identify small molecule agonists of the estrogen receptor alpha (ER-alpha) signaling pathway in the presence of an antagonist - cell viability counter screen (AID 1259386);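 also: cells exposed to compounds for 22 h at 37 °C before the viability read; nearly all actives have a fitted effect of over 30% in size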
Settings: VM7Luc4E2 viability, CellTiter-Fluor fluorescence, 22 h; series mostly up to 92.4 µM
Results filed as inconclusive are left out. Active and inactive are the calls of the source. Calls follow the shape of the dose curve; as a rule, active = well fitted cell-killing curve with a large enough effect in the repeat runs; inconclusive = weak or mixed curves, or effect the other way; inactive = no such curve, though single readings can be large or run the other way.
Just give me one of these, please: 1.0 = active, 0.0 = inactive

Write down the call the test reported for this molecule. Item: CCCCCC#CC(=O)OC 0.0

Write down the call the test reported for this molecule. Item: CC/C=C1/OC(=O)c2ccccc21 0.0

Write down the call the test reported for this molecule. Item: C=CC(C)(CCC=C(C)C)OC(=O)CC(C)C (configuration not stated) 0.0

Write down the call the test reported for this molecule. Item: Cc1cc2c(OCC(CNC(C)(C)C)OC(=O)c3ccccc3)cccc2[nH]1 (configuration not stated) 0.0

Write down the call the test reported for this molecule. Item: CCOC(C)=O 0.0

Write down the call the test reported for this molecule. Item: C[C@H]1C[C@H](O)c2ccsc2S1(=O)=O 0.0

Write down the call the test reported for this molecule. Item: COC(=O)[C@H]1[C@H]2C[C@@H]3c4[nH]c5cc(OC)ccc5c4CCN3C[C@H]2C[C@@H](OC(=O)/C=C/c2ccc(O)c(OC)c2)[C@@H]1OC 0.0

Write down the call the test reported for this molecule. Item: C/C=C/C=C/C=O 0.0

Write down the call the test reported for this molecule. Item: O=C(O)CCCCCCCCCCCBr 0.0

Write down the call the test reported for this molecule. Item: C[C@@H]1CC(=O)NN=C1c1ccc(NN=C(C#N)C#N)cc1 1.0

Write down the call the test reported for this molecule. Item: CC(C)(C)C(=O)C(=O)O 0.0

Write down the call the test reported for this molecule. Item: O=C(Cn1ccnc1[N+](=O)[O-])NCCO 0.0

Write down the call the test reported for this molecule. Item: C[C@@H](CN(C)C)CN1c2ccccc2Sc2ccccc21 0.0

Write down the call the test reported for this molecule. Item: Cc1ccc(OC(=O)c2ccccc2O)cc1 0.0

Write down the call the test reported for this molecule. Item: CC1(C)S[C@@H]2[C@H](NC(=O)C(c3ccccc3)S(=O)(=O)O)C(=O)N2[C@H]1C(=O)O (some centres not stated) 0.0

Write down the call the test reported for this molecule. Item: O=[N+]([O-])c1ccc(O/N=C/c2cc(Br)c(O)c(Br)c2)c([N+](=O)[O-])c1 1.0

Write down the call the test reported for this molecule. Item: NCCNCCO 0.0

Write down the call the test reported for this molecule. Item: CN1CCCC(n2nc(Cc3ccc(Cl)cc3)c3ccccc3c2=O)CC1 (configuration not stated) 1.0

Write down the call the test reported for this molecule. Item: CC(CC1c2ccccc2CCc2ccccc21)CN(C)C (configuration not stated) 0.0

Write down the call the test reported for this molecule. Item: Brc1cc2ccccc2c2ccccc12 0.0

Write down the call the test reported for this molecule. Item: O=C1CCCCCCCCCCOCCCCO1 0.0

Write down the call the test reported for this molecule. Item: O=C1NC(=O)c2cc([N+](=O)[O-])ccc21 0.0

====

Test: qHTS RealTime-Glo MT Cell Viability Assay in HEK293 cells - 32 hour (AID 1224868); also: nearly all actives have a fitted effect of over 50% in size
Settings: RealTime-Glo luminescence; series mostly up to 76.8 µM
Source text: National Center for Advancing Translational Sciences [NCATS] NIH Chemical Genomics Center [NCGC] U.S. Environmental Protection Agency [EPA] National Institutes of Environmental Health Sciences [NIEHS] National Toxicology Program [NTP] U.S. Food and Drug Administration [FDA] Measure of cell viability is critical in the cell-base assay. Analysis of cell viability is necessary for the characterization of cell responses to cytotoxic drugs and environmental stress. […]
Records with an inconclusive call do not appear. Active and inactive are the calls of the source. Calls come from the whole dose curve; as a rule, active = well fitted cell-killing curve with a large enough effect in the repeat runs; inconclusive = weak or mixed curves, or effect the other way; inactive = flat fitted curve, though single readings scatter.
Just give me one of these, please: active, inactive

Write down the call the test reported for this molecule. Item: CC(C)c1nc(CN(C)C(=O)N[C@H](C(=O)N[C@@H](Cc2ccccc2)C[C@H](O)[C@H](Cc2ccccc2)NC(=O)OCc2cncs2)C(C)C)cs1 active

Write down the call the test reported for this molecule. Item: COC(=O)c1nc(Cl)c(Cl)nc1N active

Write down the call the test reported for this molecule. Item: O[C@@H]1CO[C@H]2[C@@H]1OC[C@@H]2O inactive

Write down the call the test reported for this molecule. Item: CCOC(=O)c1ccc(OCCN2C[C@H](O)[C@@H](O)[C@H](O)[C@H]2CO)cc1 inactive

Write down the call the test reported for this molecule. Item: C=Cc1ccc(S(=O)(=O)O)cc1 inactive

Write down the call the test reported for this molecule. Item: O=C(/C=C/c1ccc(O)c(O)c1)O[C@@H]1C[C@@](OC(=O)/C=C/c2ccc(O)c(O)c2)(C(=O)O)C[C@@H](O)[C@@H]1O inactive

Write down the call the test reported for this molecule. Item: COc1ccc(OC(=O)N(CC(=O)O)Cc2ccc(OCCc3nc(-c4ccccc4)oc3C)cc2)cc1 inactive

Write down the call the test reported for this molecule. Item: CC1CC(OC(=O)C(O)c2ccccc2)CC(C)(C)N1C (stereo not given) inactive

Write down the call the test reported for this molecule. Item: CC/C=C1/OC(=O)c2ccccc21 inactive

Write down the call the test reported for this molecule. Item: CC(=O)OCC(=O)NCCCOc1cccc(CN2CCCCC2)c1 inactive

====

Test: qHTS assay to identify small molecule antagonists of the progesterone receptor (PR) signaling pathway - cell viability counter screen (AID 1346798); also: nearly all actives have a fitted effect of over 50% in size
Conditions: PR-UAS-bla HEK293T viability, CellTiter-Glo luminescence, 16 h; series mostly up to 92.4 µM
Results filed as inconclusive are left out. Activity calls are given as the source filed them. The call rests on the fitted dose curve; in most records, active means well fitted cell-killing curve with a large enough effect in the repeat runs; inconclusive means weak or mixed curves, or effect the other way; inactive means no such curve, though single readings can be large or run the other way.
Just give me one of these, please: 1 for active, 0 for inactive

Write down the call the test reported for this molecule. Item: COc1cc(N)c(Cl)cc1C(=O)NC1CCN(CCCOc2ccc(F)cc2)CC1OC (stereo not given) 0

Write down the call the test reported for this molecule. Item: OCCOCC#CCOCCO 0

Write down the call the test reported for this molecule. Item: CCC1CO1 (stereo not given) 0

Write down the call the test reported for this molecule. Item: CCCC(=O)C(=O)O 0

Write down the call the test reported for this molecule. Item: CC(=O)c1cc2ccccc2s1 0

Write down the call the test reported for this molecule. Item: O=C(Nc1cccc2c(=O)cc(-c3nn[nH]n3)oc12)c1ccc(OCCCCc2ccccc2)cc1 0

Write down the call the test reported for this molecule. Item: CN(C(=O)CN(CCO)CC(=O)N(C)C(C)(C)Cc1ccccc1)C(C)(C)Cc1ccccc1 0

Write down the call the test reported for this molecule. Item: OC(CCN1CCCC1)(c1ccccc1)C1CCCCC1 (stereo not given) 0

Write down the call the test reported for this molecule. Item: CCOC(=O)c1ccc(OCCN2C[C@H](O)[C@@H](O)[C@H](O)[C@H]2CO)cc1 0

Write down the call the test reported for this molecule. Item: CC1(C)[C@H](C(=O)O)N2C(=O)C[C@H]2S1(=O)=O 0

Write down the call the test reported for this molecule. Item: C[C@@H](CN(C)C)CN1c2ccccc2Sc2ccccc21 1

Write down the call the test reported for this molecule. Item: C=CC(=O)[O-].C=CC(=O)[O-].[Zn+2] 1

Write down the call the test reported for this molecule. Item: O=C(/C=C/c1ccc(O)c(O)c1)O[C@@H]1C[C@@](OC(=O)/C=C/c2ccc(O)c(O)c2)(C(=O)O)C[C@@H](O)[C@@H]1O 0

Write down the call the test reported for this molecule. Item: CCOc1ccccc1O[C@H](c1ccccc1)[C@H]1CNCCO1 0

Write down the call the test reported for this molecule. Item: O=C(O)c1ccc(OCCCOc2ccc(C(=O)O)cc2)cc1 0

Write down the call the test reported for this molecule. Item: CC(CN(C)C)C(C)(O)Cc1ccc(Cl)cc1 (stereo not given) 0

Write down the call the test reported for this molecule. Item: Cc1cc2c(OCC(CNC(C)(C)C)OC(=O)c3ccccc3)cccc2[nH]1 (stereo not given) 0

Write down the call the test reported for this molecule. Item: CC(C)C(O)(c1ccc(OC(F)(F)F)cc1)c1cncnc1 (stereo not given) 0

Write down the call the test reported for this molecule. Item: Brc1cc2ccccc2c2ccccc12 0

Write down the call the test reported for this molecule. Item: Cc1ccc(C(C)(C)O)cc1 0

Write down the call the test reported for this molecule. Item: CO/N=C(/C(=O)N[C@@H]1C(=O)N2C(C(=O)O)=C(COC(N)=O)CS[C@H]12)c1ccco1 0

Write down the call the test reported for this molecule. Item: Clc1cc(Cl)nc(Cl)n1 0

Write down the call the test reported for this molecule. Item: C=CC(C)(CCC=C(C)C)OC(=O)CC(C)C (stereo not given) 0

Write down the call the test reported for this molecule. Item: N#CCCN(CCO)CCO 0

Write down the call the test reported for this molecule. Item: C=C(C)C(=O)OCCCCCCCCCCCCC 0

====

Experiment: A CellTox Green Cytotoxicity Assay to monitor cytotoxicity in HepG2 cells - 32 hour (AID 1224883); also: nearly all actives have a fitted effect of over 50% in size
Settings: CellTox Green fluorescence; series mostly up to 76.8 µM
Inconclusive results are not listed. Activity calls are given as the source filed them. Calls follow the shape of the dose curve; as a rule, active = well fitted activation curve with a large enough effect in the repeat runs; inconclusive = weak or mixed curves; inactive = flat fitted curve, though single readings scatter.
Just give me one of these, please: active, inactive

Write down the call the test reported for this compound. Item: FC(F)(F)c1ccccc1Cl inactive

Write down the call the test reported for this compound. Item: CCC(=O)C1CC(C(C)C)CC=C1C (stereo unspecified) inactive

Write down the call the test reported for this compound. Item: C[C@@H]1CN(CCCn2c3ccccc3c3ccccc32)C[C@H](C)N1 active

Write down the call the test reported for this compound. Item: Nc1ncnc2c1ncn2[C@H]1CC[C@@H](CO)O1 inactive

Write down the call the test reported for this compound. Item: O=C(O)CCc1nc(-c2ccccc2)c(-c2ccccc2)o1 inactive

Write down the call the test reported for this compound. Item: Cc1cc(C)c(N)cc1C inactive
